compounds and their reported activity change, negative = cytotoxicity
# Tested on: Hek293T
# PROTOCOL_NOTES: Primary qHTS to identify gynecologic anti-cancer compounds using libraries of approved drugs and bioactive compounds (AID 1345084); also: nearly all actives have a fitted effect of over 55% in size; as to activity change, negative = cytotoxicity: % is scaled to controls: 0 for no effect and ±100 for the full control effect
# EXPERIMENTAL_CONTEXT: Gynecologic cancer cell panel viability, ATPlite luminescence, 48 h, control line for the selectivity index; series mostly up to 57.5 µM
Inconclusive results are not listed. The source made the active and inactive calls. Calls follow the shape of the dose curve; as a rule, active = well fitted cell-killing curve with a large enough effect; inconclusive = small, poorly fitted or top-dose-only effect, or effect the other way; inactive = flat fitted curve, though single readings scatter.
EXPERIMENTAL_ENDPOINT: activity change, negative = cytotoxicity

[[record]]
compound = "C[C@@H]1O[C@@H](O[C@H]2[C@H](OC(=O)[C@]34CCC(C)(C)C[C@H]3C3=CCC5[C@@]6(C)C[C@H](O)[C@H](O[C@@H]7O[C@H](CO)[C@@H](O[C@H]8OC[C@](O)(CO)[C@H]8O)[C@H](O)[C@H]7O)[C@@](C)(CO)C6[C@H](O)C[C@@]5(C)[C@]3(C)C[C@H]4O)OC[C@H](O)[C@@H]2O)[C@H](O)[C@H](O)[C@H]1O[C@@H]1OC[C@@H](O)[C@H](O[C@@H]2OC[C@](O)(CO)[C@H]2O)[C@H]1O (stereo partly specified)"
obs_value = "2.67% [at 6.55 µM] (inactive)"

[[record]]
compound = "C1CCC[C@H]2CCCN3CC[C@@H](CCCCCC[C@@H]4CCCN5CC[C@@H](CC1)O[C@@H]45)O[C@@H]23"
obs_value = "4.56% [at 0.155 µM] (inactive)"

[[record]]
compound = "CC(=O)C1=C(C)N(c2cccc(C(F)(F)F)c2)C(=O)N[C@H]1c1ccc(C#N)nc1"
obs_value = "-1.04% [at 11.6 µM] (inactive)"

[[record]]
compound = "CC(=O)N[C@@H](CCCCN)C(=O)N(C)[C@@H](CC(C)C)C(=O)N[C@H](C(=O)N(C)[C@@H](Cc1ccccc1)C(=O)N[C@H](Cc1ccccc1)C(N)=O)C(C)C"
obs_value = "8.12% [at 6.55 µM] (inactive)"

[[record]]
compound = "CC(=O)N[C@H]1[C@H](O[C@H]2CC[C@@]3(C)C(CC[C@]4(C)C3CC=C3C5CC(C)(C)CC[C@]5(C(=O)O)[C@H](O)C[C@]34C)C2(C)C)O[C@H](CO[C@@H]2OC[C@H](O)[C@H](O)[C@H]2O[C@@H]2OC[C@@H](O)[C@H](O)[C@H]2O)[C@@H](O)[C@@H]1O (stereo partly specified)"
obs_value = "3.72% [at 11.6 µM] (inactive)"

[[record]]
compound = "CC1(C)CC[C@]2(C(=O)O[C@@H]3O[C@H](CO[C@@H]4O[C@H](CO)[C@@H](O)[C@H](O)[C@H]4O[C@@H]4O[C@H](CO)[C@@H](O)[C@H](O)[C@H]4O)[C@@H](O)[C@H](O[C@@H]4O[C@H](CO)[C@@H](O)[C@H](O)[C@H]4O)[C@H]3O)CC[C@]3(C)C(=CCC4[C@@]5(C)CC[C@@H](O)[C@@](C)(C(=O)O[C@@H]6O[C@H](CO)[C@@H](O)[C@H](O)[C@H]6O)C5CC[C@]43C)[C@@H]2C1 (stereo partly specified)"
obs_value = "16.4% [at 6.55 µM] (inactive)"


====

# Test system: Tov112D
# PROTOCOL_NOTES: Primary qHTS to identify gynecologic anti-cancer compounds using libraries of approved drugs and bioactive compounds (AID 1345084); also: nearly all actives have a fitted effect of over 55% in size
# EXPERIMENTAL_CONTEXT: Gynecologic cancer cell panel viability, ATPlite luminescence, 48 h; series mostly up to 57.5 µM
Results filed as inconclusive are left out. Calls of active or inactive are those of the source. Calls follow the shape of the dose curve; as a rule, active = well fitted cell-killing curve with a large enough effect; inconclusive = small, poorly fitted or top-dose-only effect, or effect the other way; inactive = flat fitted curve, though single readings scatter.
Labels: active, inactive

[[record]]
compound = "OC[C@H]1O[C@@H](OC[C@H]2O[C@@H](OC/C=C/c3ccccc3)[C@H](O)[C@@H](O)[C@@H]2O)[C@@H](O)[C@@H]1O"
assigned_label = "inactive"

[[record]]
compound = "C=C(C)C1CCC2(C(=O)O)CCC3(C(=O)O)C(CCC4C5(C)CCC(O)C(C)(C(=O)O)C5CCC43C)C12 (configuration not stated)"
assigned_label = "inactive"

[[record]]
compound = "[N-]=[N+]=N[C@]1(CO)O[C@@H](n2ccc(=O)[nH]c2=O)[C@@H](O)[C@@H]1O"
assigned_label = "inactive"

[[record]]
compound = "COc1ccc(Oc2cc(C)c(-c3csc(NC(=O)c4ccncc4)n3)c(C)c2)cc1"
assigned_label = "inactive"

[[record]]
compound = "c1cn2cc(-c3ccc4cn[nH]c4c3)nc(Nc3ccc(N4CCOCC4)cc3)c2n1"
assigned_label = "active"

[[record]]
compound = "CC1(c2nc3c(C(N)=O)cccc3[nH]2)CCCN1 (configuration not stated)"
assigned_label = "inactive"

[[record]]
compound = "CC(=O)O[C@@H]1[C@@H](OC(=O)/C=C/c2ccccc2)[C@@H](OC(C)=O)[C@H](O[C@H]2[C@@H]3C=CO[C@@H](O[C@@H]4O[C@H](CO)[C@@H](O)[C@H](O)[C@H]4O)[C@@H]3[C@@]3(CO)O[C@@H]23)O[C@H]1C"
assigned_label = "inactive"


====

# System: C33A
# PROTOCOL_NOTES: Primary qHTS to identify gynecologic anti-cancer compounds using libraries of approved drugs and bioactive compounds (AID 1345084); also: nearly all actives have a fitted effect of over 55% in size; as to activity change, negative = cytotoxicity: % is scaled to controls: 0 for no effect and ±100 for the full control effect
# EXPERIMENTAL_CONTEXT: Gynecologic cancer cell panel viability, ATPlite luminescence, 48 h; series mostly up to 57.5 µM
Inconclusive results are not listed. Calls of active or inactive are those of the source. Calls come from the whole dose curve; as a rule, active = well fitted cell-killing curve with a large enough effect; inconclusive = small, poorly fitted or top-dose-only effect, or effect the other way; inactive = flat fitted curve, though single readings scatter.
EXPERIMENTAL_ENDPOINT: activity change, negative = cytotoxicity

[[record]]
compound = "CCc1cccc(CC)c1NC(=O)c1nn(C)c2c1CCc1cnc(Nc3ccc(C(=O)NC4CCN(C)CC4)cc3OC(F)(F)F)nc1-2"
obs_value = "inactive"

[[record]]
compound = "C=CC1C(OC2OC(CO)C(O)C(O)C2O)OC=C(C(=O)OC)C1CC1CC(=O)CC(CCc2ccc(O)cc2)O1 (stereo not drawn)"
obs_value = "inactive"

[[record]]
compound = "CC(C)C(NC(=O)c1ccc2ccccc2n1)C(=O)NC(CC(=O)O)C(=O)COc1c(F)cccc1F (stereo not drawn)"
obs_value = "inactive"

[[record]]
compound = "CC(=O)c1ccc2c(c1)C(O)C(C(C)(C)O)O2 (stereo not drawn)"
obs_value = "inactive"

[[record]]
compound = "CC(C)N(CCCCOCC(=O)NS(C)(=O)=O)c1cnc(-c2ccccc2)c(-c2ccccc2)n1"
obs_value = "inactive"

[[record]]
compound = "C[C@@H]1O[C@@H](O[C@H]2[C@@H](OC(=O)[C@]34CCC(C)(C)CC3C3=CCC5[C@@]6(C)C[C@H](O)[C@H](O[C@@H]7O[C@H](C(=O)O)[C@@H](O)[C@H](O)[C@H]7O)[C@@](C)(C(=O)O)C6CC[C@@]5(C)[C@]3(C)CC4)OC[C@H](O)[C@@H]2O)[C@H](O)[C@H](O)[C@H]1O[C@@H]1OC[C@@H](O)[C@H](O)[C@H]1O (stereo partly drawn)"
obs_value = "1.85% [at 11.6 µM] (inactive)"

[[record]]
compound = "N#Cc1c(Oc2ccc(F)c(NC(=O)Cc3cccc(C(F)(F)F)c3)c2)ccc2nc(NC(=O)C3CC3)sc12"
obs_value = "inactive"

[[record]]
compound = "CC(=O)OC[C@@]12C(=O)C[C@@H](C)[C@]3(C[C@@H](c4ccoc4)O[C@H]3OC(C)=O)[C@H]1CCC[C@]21CO1"
obs_value = "inactive"

